The values you see were collected from patent US20230365585A1.

- Test system: RSV A2
- protocolText: RSV plaque reduction assay
- Assay type: cell-based, RSV (RSV A2 ECACC, 0709161v)
- testSettings: human respiratory syncytial virus, HepG2, 48 h, Hep-G2 cells, RSV A2, 2 days; mean of at least two experiments
Quick list: EC50 per entry.

{"compound": "CCC1CCCn2nc(-c3ccccc3F)c(C(=O)N[C@H]3N=C(c4ccccc4)c4ccccc4NC3=O)c2O1 (single isomer, unassigned) [Example 24-1]", "targetOrTestSystem": "RSV A2", "EC50": "111 nM"}
{"compound": "CC1(C)CCCn2nc(-c3ccccc3F)c(C(=O)N[C@H]3N=C(c4ccccc4)c4ccccc4NC3=O)c2O1", "targetOrTestSystem": "RSV A2", "EC50": "91 nM"}
{"compound": "CC(C)Nc1ccc(-c2nn3c(c2C(=O)N[C@H]2N=C(c4ccccc4)c4cccc(F)c4NC2=O)OCC(F)(F)CC3)cn1", "targetOrTestSystem": "RSV A2", "EC50": "52 nM"}
{"compound": "CC(C)Nc1ccc(-c2nn3c(c2C(=O)N[C@H]2N=C(c4ccccc4)c4cccc(F)c4NC2=O)O[C@@H]2CC[C@H]3C2)cn1 (single isomer, unassigned)", "targetOrTestSystem": "RSV A2", "EC50": "63 nM"}
{"compound": "CC1CCCOc2c(C(=O)N[C@H]3N=C(c4ccccc4)c4cccc(F)c4NC3=O)c(-c3ccccc3F)nn21 (stereo partly drawn)", "targetOrTestSystem": "RSV A2", "EC50": "64 nM"}
{"compound": "CCC1CCCn2nc(-c3ccccc3F)c(C(=O)N[C@H]3N=C(c4ccccc4)c4ccccc4NC3=O)c2O1 (stereo partly drawn) [Example 24]", "targetOrTestSystem": "RSV A2", "EC50": "100 nM"}

* * *

- protocolText: Liver microsomal stability (dog)
- Format: in vitro ADME
- testSettings: pooled liver microsomes, pH 7.4, 0.5 mg/mL protein, 1 µM compound, read-out: Liver Microsomal Stability t½

{"smilesRecord": "O=C(N[C@H]1N=C(c2ccccc2)c2cccc(F)c2NC1=O)c1c(-c2ccccc2F)nn2c1OCCCC2", "half-life at 1 µM, h": 5.42}
{"smilesRecord": "O=C(N[C@H]1N=C(c2ccccc2)c2cccc(F)c2NC1=O)c1c(-c2ccccc2F)nn2c1OCC(F)(F)CC2", "half-life at 1 µM, h": 31}

* * *

Quick list: log10 EC50 per entry.
- System: RSV A2
- protocolText: RSV plaque reduction assay
- Assay type: cell-based, RSV (RSV A2 ECACC, 0709161v)
- testSettings: human respiratory syncytial virus, HepG2, 48 h, Hep-G2 cells, RSV A2, 2 days; mean of at least two experiments
assayEndpoint: log10 EC50 (log10 of the value in nM)

{"compound": "O=C(N[C@H]1N=C(c2ccccc2)c2cccc(F)c2NC1=O)c1c(-c2ccccc2F)nn2c1S(=O)(=O)CCCC2", "log10 EC50": 2.58}
{"compound": "CCNc1ccc(-c2nn3c(c2C(=O)N[C@H]2N=C(c4ccccc4)c4ccccc4NC2=O)OC(C)CCC3)c(F)n1 (single isomer, unassigned) [Example 10-1]", "log10 EC50": 1.41}
{"compound": "CC1CCCOc2c(C(=O)NC3N=C(c4ccccc4)c4ccccc4NC3=O)c(-c3ccccc3F)nn21 (single isomer, unassigned)", "log10 EC50": 1.79}
{"compound": "CCNc1ccc(-c2nn3c(c2C(=O)N[C@H]2N=C(c4ccccc4)c4cccc(F)c4NC2=O)O[C@H](C)CCC3)c(F)n1 (single isomer, unassigned)", "log10 EC50": 1.34}
{"compound": "CC1CCCn2nc(-c3ccccc3F)c(C(=O)N[C@H]3N=C(c4ccccc4)c4ccccc4NC3=O)c2O1 (stereo partly shown)", "log10 EC50": 1.57}
{"compound": "O=C(N[C@H]1N=C(c2ccccc2)c2ccccc2NC1=O)c1c(-c2ccccc2)nn2c1OCCCC2", "log10 EC50": 1.90}
{"compound": "CS(=O)(=O)c1ccc(-c2nn3c(c2C(=O)N[C@H]2N=C(c4ccccc4)c4cccc(F)c4NC2=O)OC2CCC3C2)c(F)c1 (stereo partly shown)", "log10 EC50": 1.36}
{"compound": "CCC1CCCn2nc(-c3ccc(C)nc3)c(C(=O)N[C@H]3N=C(c4ccccc4)c4cccc(F)c4NC3=O)c2O1 (stereo partly shown) [Example 27]", "log10 EC50": 2.60}
{"compound": "CCc1ccc(-c2nn3c(c2C(=O)N[C@H]2N=C(c4ccccc4)c4cccc(F)c4NC2=O)OCC(F)(F)CC3)cn1", "log10 EC50": 2.01}
{"compound": "O=C(N[C@H]1N=C(c2ccccc2)c2cccc(F)c2NC1=O)c1c(-c2ccccc2F)nn2c1O[C@@H]1CC[C@H]2C1 (single isomer, unassigned)", "log10 EC50": 1.69}
{"compound": "CC1CCCn2nc(-c3ccc(F)cc3F)c(C(=O)N[C@H]3N=C(c4ccccc4)c4cccc(F)c4NC3=O)c2O1 (stereo partly shown) [Example 17]", "log10 EC50": 1.43}
{"compound": "O=C(N[C@H]1N=C(c2ccccc2)c2cccc(F)c2NC1=O)c1c(-c2ccccc2)nn2c1OCCCC2", "log10 EC50": 1.77}
{"compound": "CCC1CCCn2nc(-c3ccc(C)nc3)c(C(=O)N[C@H]3N=C(c4ccccc4)c4cccc(F)c4NC3=O)c2O1 (single isomer, unassigned) [Example 27-1]", "log10 EC50": 2.47}

* * *

- protocolText: Liver microsomal stability (rat)
- Type: in vitro ADME
- testSettings: pooled liver microsomes, pH 7.4, 0.5 mg/mL protein, 1 µM compound, read-out: Liver Microsomal Stability t½
- Method: Compounds were subjected to the following assays to investigate liver microsomal stability. Pooled liver microsomes were purchased from a reputable commercial supplier and stored at -80° C. prior to use. […] Following protein precipitation, the sample supernatants were combined in cassettes of up to 4 compounds, internal standard added, and samples analysed by LC-MS/MS. […] Subsequently, half-life (t½) and intrinsic clearance (CLint) were calculated.

{"smilesRecord": "O=C(N[C@H]1N=C(c2ccccc2)c2cccc(F)c2NC1=O)c1c(-c2ccccc2F)nn2c1OCC(F)(F)CC2", "half-life at 1 µM / h": 3.25}
{"smilesRecord": "O=C(N[C@H]1N=C(c2ccccc2)c2cccc(F)c2NC1=O)c1c(-c2ccccc2F)nn2c1OCCCC2", "half-life at 1 µM / h": 0.853}

* * *

- System: RSV A2
- protocolText: RSV plaque reduction assay
- Type: cell-based, RSV (RSV A2 ECACC, 0709161v)
- testSettings: human respiratory syncytial virus, HepG2, 48 h, Hep-G2 cells, RSV A2, 2 days; mean of at least two experiments
assayEndpoint: log10 EC50 (log10 of the value in nM)

{"compound": "CCNc1ccc(-c2nn3c(c2C(=O)N[C@H]2N=C(c4ccccc4)c4ccccc4NC2=O)OC(C)CCC3)c(F)n1 (stereo partly drawn) [Example 10]", "targetOrTestSystem": "RSV A2", "recordedValue": 1.49}
{"compound": "CC(C)Nc1ccc(-c2nn3c(c2C(=O)N[C@H]2N=C(c4ccccc4)c4cccc(F)c4NC2=O)O[C@H]2CC[C@@H]3C2)cn1 (single isomer, unassigned)", "targetOrTestSystem": "RSV A2", "recordedValue": 1.97}
{"compound": "O=C(N[C@H]1N=C(c2ccccc2)c2ccccc2NC1=O)c1c(-c2ccc(NC3CC3)nc2F)nn2c1OCCCC2", "targetOrTestSystem": "RSV A2", "recordedValue": 1.38}
{"compound": "CCc1ccc(-c2nn3c(c2C(=O)N[C@H]2N=C(c4ccccc4)c4cccc(F)c4NC2=O)O[C@H]2CC[C@@H]3C2)cn1 (single isomer, unassigned)", "targetOrTestSystem": "RSV A2", "recordedValue": 1.80}
{"compound": "CC1CCCOc2c(C(=O)N[C@H]3N=C(c4ccccc4)c4ccccc4NC3=O)c(-c3ccccc3F)nn21 (stereo partly drawn)", "targetOrTestSystem": "RSV A2", "recordedValue": 1.83}
{"compound": "O=C(N[C@H]1N=C(c2ccccc2)c2cccc(F)c2NC1=O)c1c(-c2ccccc2F)nn2c1OCC(F)(F)CC2", "targetOrTestSystem": "RSV A2", "recordedValue": 1.65}
{"compound": "Cc1cncc(-c2nn3c(c2C(=O)N[C@H]2N=C(c4ccccc4)c4ccccc4NC2=O)OCCCC3)c1", "targetOrTestSystem": "RSV A2", "recordedValue": 2.41}
{"compound": "CCNc1ccc(-c2nn3c(c2C(=O)N[C@H]2N=C(c4ccccc4)c4cccc(F)c4NC2=O)OC(C)CCC3)c(F)n1 (single isomer, unassigned) [Example 11-2]", "targetOrTestSystem": "RSV A2", "recordedValue": 0.95}
{"compound": "CCc1ccc(-c2nn3c(c2C(=O)N[C@H]2N=C(c4ccccc4)c4cccc(F)c4NC2=O)O[C@@H]2CC[C@H]3C2)cn1 (single isomer, unassigned)", "targetOrTestSystem": "RSV A2", "recordedValue": 1.79}
{"compound": "CCC1CCCn2nc(-c3ccccc3F)c(C(=O)N[C@H]3N=C(c4ccccc4)c4cccc(F)c4NC3=O)c2O1 (stereo partly drawn) [Example 25]", "targetOrTestSystem": "RSV A2", "recordedValue": 1.92}
{"compound": "CC(C)Nc1ccc(-c2nn3c(c2C(=O)N[C@H]2N=C(c4ccccc4)c4cccc(F)c4NC2=O)OC(C)CCC3)c(F)n1 (stereo partly drawn) [Example 13]", "targetOrTestSystem": "RSV A2", "recordedValue": 1.53}
{"compound": "CCC1CCCn2nc(-c3ccc(C)nc3)c(C(=O)N[C@H]3N=C(c4ccccc4)c4ccccc4NC3=O)c2O1 (single isomer, unassigned) [Example 26-1]", "targetOrTestSystem": "RSV A2", "recordedValue": 2.50}
